- Cond: 10 min, 10 μM
Reported Property: Prodrug (%) remaining, Rat Plasma

>>> df
                                   compound                  reported_property  observed_value
0  COc1ccc([C@@]23CCC(OC(=O)c4c(C)cccc4C)=C[C@@H]2N(C)CC3)cc1OC [Compound 372]  Prodrug (%) remaining, Rat Plasma            >99%

Task: Look up Prodrug (%) remaining, Rat Plasma for this compound: CCCCC(CC)C(=O)OC1=C[C@@H]2N(C)CC[C@]2(c2ccc(OC)c(OC)c2)CC1 (stereo partly shown) [Compound 401]
Result: 84.5%

Task: Look up Prodrug (%) remaining, Rat Plasma for this compound: COCCCCC(=O)OC1=C[C@@H]2N(C)CC[C@]2(c2ccc(OC)c(OC)c2)CC1 [Compound 404]
Result: 0.3%

Task: Look up Prodrug (%) remaining, Rat Plasma for this compound: COCCOCCC(=O)OC1=C[C@@H]2N(C)CC[C@]2(c2ccc(OC)c(OC)c2)CC1 [Compound 405]
Result: 0.1%

Data provenance: patent US20250051277A1
